target.of.assay: Syk kinase (Homo sapiens, UniProt P43405)
Construct: purchased
assay.name: Syk kinase inhibition, Caliper LabChip off-chip mobility-shift kinase assay
Format: biochemical
stated.conditions: read-out: Syk Enzyme IC50
assay.endpoint: IC50 (nM)
Numbers only, in nM.

- COC(=O)C(C)N1CCC(c2ccc(Nc3nc(-c4cncc(OC)n4)cc4cc[nH]c(=O)c34)cc2C)CC1 (stereo not shown) [compound 116]: 184

Quick request: IC50 for each listed item, please.
1. COc1cncc(-c2cc3cc[nH]c(=O)c3c(Nc3ccc(CCN4CCCN(C)CC4)cc3)n2)n1 [compound 434]
2. CC(=O)N1CCC(c2ccc(Nc3nc(Nc4cnccn4)cc4ccn(C)c(=O)c34)cc2)CC1 [compound 345]

A.
1: 37; 2: 1220

Please look at the items below and tell me IC50 for each one, in order.
1. C[C@H](O)CNc1nc(-c2cnc(N)nc2)cc2cc[nH]c(=O)c12 [compound 451]
2. C[C@@H](CO)Nc1nc(Nc2cnccn2)cc2ccn(C)c(=O)c12 [compound 327]
3. Cn1ccc2cc(Nc3cc(Cl)ccn3)nc(N[C@H]3CC[C@H](O)CC3)c2c1=O [compound 385]
4. CN(C)[C@H]1CC[C@H](c2ccc(Nc3nc(-c4cncnc4)cc4cc[nH]c(=O)c34)cc2)CC1 [compound 92]
5. COCCCN1CCC(c2ccc(Nc3nc(-c4cncc(OC)n4)cc4cc[nH]c(=O)c34)cc2C)CC1 [compound 141]
6. Cn1ccc2cc(Nc3cnccn3)nc(N[C@H]3CCC[C@H]3O)c2c1=O (racemic) [compound 328]
7. COCCN1CCN(c2n[nH]c3cc(Nc4nc(-c5ccc(C)nc5)cc5cc[nH]c(=O)c45)ccc23)CC1 [compound 215]
8. CN(C)CCn1ccc2cc(Nc3cc(Cl)ccn3)nc(N[C@H]3CC[C@@H](O)CC3)c2c1=O [compound 388]

A.
1. 88
2. 120
3. 28
4. 45
5. 7
6. 39
7. 67
8. 42

Here are 2 compounds. What values of IC50 were reported for them?
1. CCn1ccc2cc(Nc3cnccn3)nc(NC[C@H]3CC[C@@](C)(O)C3)c2c1=O [compound 417]
2. CC(C)N1CCC(c2cc3cc[nH]c(=O)c3c(Nc3ccc(N4CCOCC4)cc3)n2)CC1 [compound 3]

A.
[95.6, 202]

====

target.of.assay: Syk kinase (Homo sapiens)
Construct: purchased
assay.name: Syk kinase inhibition, Caliper LabChip off-chip mobility-shift kinase assay
Format: biochemical
stated.conditions: Caliper LabChip assay; read-out: Syk Enzyme IC50
assay.endpoint: IC50 (µM)
Give bare numbers, in µM.

# return IC50 for each item in the list
1. CC(C)(C)Nc1nc(Nc2cc(C3CCCCO3)ncn2)cc2ccn(CCO)c(=O)c12 (stereo not shown)
2. CCn1ccc2cc(Nc3cc(C(C)(C)O)ccn3)nc(NC3(C)CCC3)c2c1=O
3. CC(C)(C)Nc1nc(Nc2ccncn2)cc2ccn(CCO)c(=O)c12
4. CCn1ccc2cc(Nc3cc(C)ccn3)nc(NCCC(F)(F)F)c2c1=O

A.
1: 0.756; 2: 0.085; 3: 0.09; 4: 0.862

====

target.of.assay: Syk kinase (Homo sapiens)
Construct: purchased
assay.name: Syk kinase inhibition, Caliper LabChip off-chip mobility-shift kinase assay
Type: biochemical
stated.conditions: read-out: Syk Enzyme IC50
assay.endpoint: IC50 (nM)
Answers are plain numbers, in nM.

Recorded IC50, per entry:
* Cc1ccnc(Nc2cc3cc[nH]c(=O)c3c(N[C@H](C)CO)n2)c1 | 20
* Nc1ncc(-c2cc3cc[nH]c(=O)c3c(NC[C@@H](O)c3cccc(Cl)c3)n2)cn1 | 384
* Cc1ccnc(Nc2cc3ccn(C)c(=O)c3c(N[C@H]3CCC[C@H]3O)n2)c1 (racemic) | 98
* COc1cncc(-c2cc3cc[nH]c(=O)c3c(Nc3ccc(CCCN4CCOCC4)cc3)n2)n1 | 95
* COc1cncc(-c2cc3cc[nH]c(=O)c3c(Nc3ccc(C4CCN(CCS(C)(=O)=O)CC4)c(C)c3)n2)n1 | 115
* CCn1ccc2cc(Nc3cnc(C)cn3)nc(N[C@@H](C)CO)c2c1=O | 384
* CCn1ccc2cc(Nc3ncccn3)nc(NC[C@H]3CC[C@H](O)C3)c2c1=O | 71
* COc1cncc(-c2cc3cc[nH]c(=O)c3c(Nc3ccc(CCN4CCNC5(CCCC5)C4)cc3)n2)n1 | 78
* Cc1ccnc(Nc2cc3cc[nH]c(=O)c3c(NC(C)(C)CO)n2)c1 | 21
* COCCOCC(=O)N1CCC(c2ccc(Nc3nc(-c4cncc(OC)n4)cc4cc[nH]c(=O)c34)cc2)CC1 | 44

For the next question, use this compound.
Q. Query for Syk kinase (Homo sapiens): what IC50 does the record show for Cc1ccnc(Nc2cc3ccn(C)c(=O)c3c(N[C@H]3CC[C@H](O)CC3)n2)c1 ?
A. 41
